measurementNotes: recombinant barcode read abundance after kanamycin selection (control-corrected) (log10(CPM+1)); higher = more efficient recombination; sequences stand for … in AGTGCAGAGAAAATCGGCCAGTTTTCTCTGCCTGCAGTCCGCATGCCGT…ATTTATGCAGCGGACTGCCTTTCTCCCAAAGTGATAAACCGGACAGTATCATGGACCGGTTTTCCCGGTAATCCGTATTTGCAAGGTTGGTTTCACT; site = the 11-nt target
testReadout: recombinant barcode read abundance (log10)

| chainSequence | result |
| --- | --- |
| TCTACCCAGTGGGTTCTAACCTGTTGCTGAG [TCTACCCCTCA_LTGcore_AG_RTGcore_CT] (site TCTACCCCTCA) (LTG core: AG, RTG core: CT) | 0.467 |
| GAGTCCTCTTGGGTTCTAACCTGTTGCCTAG [GAGTCCTCTAG_LTGcore_CT_RTGcore_CT] (site GAGTCCTCTAG) (LTG core: CT, RTG core: CT) | 2.17 |
| AGGCGGTCTTGGGTTCTAACCTGTTGCTTCT [AGGCGGTCTAA_LTGcore_CT_RTGcore_AG] (site AGGCGGTCTAA) (LTG core: CT, RTG core: AG) | 0.284 |
| AGGCGGGTGTGGGTTCTAACCTGTTGCGGAG [AGGCGGGCTCC_LTGcore_TG_RTGcore_CT] (site AGGCGGGCTCC) (LTG core: TG, RTG core: CT) | 0.159 |

Short answer for AGTCTTAGCTGGGTTCTAACCTGTTGCCAGC [AGTCTTACTTG_LTGcore_GC_RTGcore_GC] (site AGTCTTACTTG) (LTG core: GC, RTG core: GC) : recombinant barcode read abundance (log10) was 0.197

Looking up GGGCGTGTATGGGTTCTAACCTGTTGCCTTA [GGGCGTGCTAG_LTGcore_TA_RTGcore_TA] (site GGGCGTGCTAG) (LTG core: TA, RTG core: TA) , I found its recombinant barcode read abundance (log10) recorded as 0.36

The value of recombinant barcode read abundance (log10) measured for the sequence AAACACACCTGGGTTCTAACCTGTTGCCTAG [AAACACACTAG_LTGcore_CC_RTGcore_CT] (site AAACACACTAG) (LTG core: CC, RTG core: CT) turned out to be 0.633

The recorded recombinant barcode read abundance (log10) for GAGGCCTCTTGGGTTCTAACCTGTTGCCATC [GAGGCCTCTTG_LTGcore_CT_RTGcore_GA] (site GAGGCCTCTTG) (LTG core: CT, RTG core: GA) is 0.252

get_value(item= AGGCGGTCTTGGGTTCTAACCTGTTGCTTAT [AGGCGGTCTAA_LTGcore_CT_RTGcore_AT] (site AGGCGGTCTAA) (LTG core: CT, RTG core: AT) , readout=recombinant barcode read abundance (log10)) returns 0.144

recombinant barcode read abundance (log10) recorded for this sequence, GCGCGACACTGGGTTCTAACCTGTTGCTTGT [GCGCGACCTAA_LTGcore_AC_RTGcore_AC] (site GCGCGACCTAA) (LTG core: AC, RTG core: AC) , is 0.147

TCTACCCCATGGGTTCTAACCTGTTGCTGAG [TCTACCCCTCA_LTGcore_CA_RTGcore_CT] (site TCTACCCCTCA) (LTG core: CA, RTG core: CT) yielded recombinant barcode read abundance (log10) of 0.806

Summary for this sequence, ACGGGACTATGGGTTCTAACCTGTTGCAGTA [ACGGGACCTCT_LTGcore_TA_RTGcore_TA] (site ACGGGACCTCT) (LTG core: TA, RTG core: TA) : recombinant barcode read abundance (log10) is 0.0155
